system: P12-Ichikawa; experiment: cell viability relative to DMSO control; higher = less cytotoxic; settings: RPMI 5 mM glucose + 10% dialyzed FBS; 48 h; 0.00234 µM
experimental readout: cell viability (%)

compound	system	experimental readout	numeric readout
CC1=CC(=CC(=C1C\C2=N\CCN2)C)C(C)(C)C	P12-Ichikawa	cell viability	96.4
O=C(CCCN1CCN(c2ccc(F)cc2)CC1)NC1c2ccccc2CSc2ccccc21 (configuration not stated)	P12-Ichikawa	cell viability	122
CC[C@@H]([C@H](C)O)n1ncn(-c2ccc(N3CCN(c4ccc(OCC5CO[C@@](Cn6cncn6)(c6ccc(F)cc6F)C5)cc4)CC3)cc2)c1=O (some centres not stated)	P12-Ichikawa	cell viability	98
OCC(O)C(O)C(O)CO (configuration not stated)	P12-Ichikawa	cell viability	89.9
CC[C@H]1OC(=O)[C@H](C)C(=O)[C@H](C)[C@@H](O[C@H]2O[C@H](C)C[C@H](N(C)C)[C@H]2O)[C@](C)(OC)C[C@@H](C)C(=O)[C@H](C)[C@H]2N(CCCCn3cnc(-c4cccnc4)c3)C(=O)O[C@]12C	P12-Ichikawa	cell viability	122
C=C[C@H]1CN2CCC1C[C@@H]2C(O)c1ccnc2ccc(OC)cc12 (some centres not stated)	P12-Ichikawa	cell viability	121
COc1cccc2c1C(=O)c1c(O)c3c(c(O)c1C2=O)C[C@@](O)(C(=O)CO)C[C@@H]3O[C@H]1C[C@H](N)[C@H](O)[C@H](C)O1	P12-Ichikawa	cell viability	114
